biological target: 5-lipoxygenase (Rattus norvegicus, UniProt P12527); test: ARBL whole cell 5-lipoxygenase assay (LTB4 formation in RBL-1 cells); settings: A23187 stimulated, read-out: ARBL IC50 for LTB4 inhibition
Sequence (P12527 whole entry): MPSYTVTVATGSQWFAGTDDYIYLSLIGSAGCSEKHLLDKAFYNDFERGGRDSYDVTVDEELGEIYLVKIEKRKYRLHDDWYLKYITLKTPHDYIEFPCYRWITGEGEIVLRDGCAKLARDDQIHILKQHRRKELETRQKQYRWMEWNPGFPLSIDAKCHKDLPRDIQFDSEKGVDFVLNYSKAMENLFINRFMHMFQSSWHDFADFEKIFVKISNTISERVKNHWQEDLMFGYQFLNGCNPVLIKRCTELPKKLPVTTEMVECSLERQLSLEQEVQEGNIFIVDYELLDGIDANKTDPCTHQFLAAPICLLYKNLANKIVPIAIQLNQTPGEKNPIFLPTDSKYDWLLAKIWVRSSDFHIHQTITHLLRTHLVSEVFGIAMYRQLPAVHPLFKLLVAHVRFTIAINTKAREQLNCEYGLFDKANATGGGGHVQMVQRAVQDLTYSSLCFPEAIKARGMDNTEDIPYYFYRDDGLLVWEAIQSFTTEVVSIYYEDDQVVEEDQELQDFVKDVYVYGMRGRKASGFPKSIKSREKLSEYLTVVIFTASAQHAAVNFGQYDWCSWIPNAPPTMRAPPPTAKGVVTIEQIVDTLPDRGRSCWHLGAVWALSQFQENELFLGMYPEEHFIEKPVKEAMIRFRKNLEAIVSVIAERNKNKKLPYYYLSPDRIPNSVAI
pIC50: −log10 of the molar value.
metric.name: pIC50

(a) CC(C)(C)c1cc(/C=C2\SC(=NNC(N)=S)NC2=O)cc(C(C)(C)C)c1O [Example 7]
(b) CON(C)C1=NC(=O)/C(=C/c2cc(C(C)(C)C)c(O)c(C(C)(C)C)c2)S1
Of a and b , which one carries the higher reported pIC50? The response must carry the label of the picked entry. a
(a: 6.41, b: 5.77)
